The reported measurements were obtained from the METLIN SMRT retention time set (Domingo-Almenara et al. 2019).

Test: gradient 5% acetonitrile 3 min, to 50% in 2 min, to 85% in 15 min, held 3 min, 100 µL/min
Settings: column: Zorbax Extend-C18 2.1 x 50 mm; eluents: water / acetonitrile, 0.1% formic acid

[
  {
    "compound": "CCS(=O)(=O)Nc1cc(-c2nnc(C)o2)sc1C",
    "RP-LC retention time (s)": 738
  },
  {
    "compound": "O=C(Nc1ccccc1Cl)N1CCc2nc[nH]c2C1",
    "RP-LC retention time (s)": 570
  },
  {
    "compound": "Cc1ccc(-n2nc(N3CCCC(C(=O)NC(C)CCc4ccccc4)C3)ccc2=O)cc1Cl (stereo unspecified)",
    "RP-LC retention time (s)": 1060
  },
  {
    "compound": "CCOc1ccc(CC(=O)N2CCN(S(=O)(=O)c3cc4c5c(c3)CCC(=O)N5CCC4)CC2)cc1",
    "RP-LC retention time (s)": 823
  },
  {
    "compound": "Cc1ccc2nc(Nc3nccc(C)n3)nc(C)c2c1",
    "RP-LC retention time (s)": 616
  },
  {
    "compound": "Cc1noc2ncnc(N3CCCC(C(=O)N4CCN(C5CCCCC5)CC4)C3)c12 (stereo unspecified)",
    "RP-LC retention time (s)": 594
  }
]

---

The reader will find reported RP-LC retention time values listed item by item below.
Experiment: gradient 5% acetonitrile 3 min, to 50% in 2 min, to 85% in 15 min, held 3 min, 100 µL/min
Details: column: Zorbax Extend-C18 2.1 x 50 mm; eluents: water / acetonitrile, 0.1% formic acid

[
  {
    "smiles_str": "CSc1nnc(-c2nn(C)c3c2CN(C(=O)c2ccccc2)CC3)n1C",
    "RP-LC retention time, s": 680
  },
  {
    "smiles_str": "CC(C)N1CCn2cc(S(=O)(=O)NCc3ccccc3Cl)cc2C1=O",
    "RP-LC retention time, s": 769
  },
  {
    "smiles_str": "Cc1ccc(C(=O)NCc2nc(-c3ccc4c(c3)ncn4C)no2)cc1",
    "RP-LC retention time, s": 634
  },
  {
    "smiles_str": "Cc1cc(-n2cc(C(=O)N3CCC(NC(=O)Cc4cccs4)CC3)nn2)ccc1F",
    "RP-LC retention time, s": 746
  },
  {
    "smiles_str": "CCN1C(=O)COc2ccc(-c3noc(-c4cccc(NC(C)=O)c4)n3)cc21",
    "RP-LC retention time, s": 848
  },
  {
    "smiles_str": "CCc1cccc(C)c1Nc1c(-c2ccc(O)c(OC)c2)nc2nc(C)cc(C)n12",
    "RP-LC retention time, s": 710
  },
  {
    "smiles_str": "COc1ccc(-c2ccc(=O)n(CCCNC(=O)c3ccc(S(N)(=O)=O)cc3)n2)cc1",
    "RP-LC retention time, s": 812
  },
  {
    "smiles_str": "COc1ccc(CC(=O)Nc2ccc3c(c2)Sc2ncccc2C(=O)N3C)c(Cl)c1",
    "RP-LC retention time, s": 804
  },
  {
    "smiles_str": "COc1cccc(CC(=O)N2CCC3(CC2)NC(=O)c2ccc(Cl)cc2N3)c1",
    "RP-LC retention time, s": 790
  },
  {
    "smiles_str": "CCCCNC(=O)c1c(C)c2c(=O)n(CC(=O)Nc3ccc(Br)cc3)ncn2c1C",
    "RP-LC retention time, s": 826
  },
  {
    "smiles_str": "O=C(CSc1nnc2ccc3ccccc3n12)c1ccc(Cl)cc1",
    "RP-LC retention time, s": 875
  }
]

---

Below: a set of entries, each annotated with reported RP-LC retention time.
Experiment: gradient 5% acetonitrile 3 min, to 50% in 2 min, to 85% in 15 min, held 3 min, 100 µL/min
Conditions: column: Zorbax Extend-C18 2.1 x 50 mm; eluents: water / acetonitrile, 0.1% formic acid
readout_label: RP-LC retention time (s)

[
  {
    "compound": "O=C(Nc1c(-c2ccccc2)nc2ccccn12)c1cccc([N+](=O)[O-])c1",
    "unit": "s",
    "recorded_result": 596
  },
  {
    "compound": "O=C(NCc1cccs1)c1cc(=O)c(OCc2ccccc2)co1",
    "unit": "s",
    "recorded_result": 727
  },
  {
    "compound": "CC(C)S(=O)(=O)N1CC(c2nc(CCOCc3ccccc3)no2)C1",
    "unit": "s",
    "recorded_result": 914
  },
  {
    "compound": "O=C(Cc1cccc(F)c1)NC1CCN(c2cc(-c3ccc(F)cc3)[nH]n2)C1 (stereo unspecified)",
    "unit": "s",
    "recorded_result": 716
  },
  {
    "compound": "CN1C(=O)c2ccccc2Oc2ccc(C(=O)N3CCCCCC3)cc21",
    "unit": "s",
    "recorded_result": 846
  },
  {
    "compound": "Cc1nc(-c2ccncc2)nc2c1CCC(=O)N2Cc1cccs1",
    "unit": "s",
    "recorded_result": 723
  }
]

---

Assay: gradient 5% acetonitrile 3 min, to 50% in 2 min, to 85% in 15 min, held 3 min, 100 µL/min
Settings: column: Zorbax Extend-C18 2.1 x 50 mm; eluents: water / acetonitrile, 0.1% formic acid
Class (required): determined from RP-LC retention time; valid ranges are bin 1: < 800 s; bin 2: ≥ 800 s and < 900 s; bin 3: ≥ 900 s

[
  {
    "compound": "COc1ccc(F)cc1S(=O)(=O)N1CCN(c2c(C)nn(-c3ccccc3)c2C)CC1",
    "label_class": "bin 3"
  },
  {
    "compound": "CC(C)CN(CC(C)C)C(=O)C1CCN(S(=O)(=O)c2ccc3c(c2)CCCC(=O)N3)CC1",
    "label_class": "bin 2"
  },
  {
    "compound": "O=C(NCCC(c1ccccc1)c1ccccc1)c1cnc2sccn2c1=O",
    "label_class": "bin 2"
  },
  {
    "compound": "CCCN1CCN(C(=O)C2CCCN(S(=O)(=O)c3cc(-c4noc(C)n4)cs3)C2)CC1 (stereo unspecified)",
    "label_class": "bin 1"
  },
  {
    "compound": "Cc1ccc(NC(=O)Cc2csc3nc(-c4ccc(C)c(C)c4)cn23)c(C)c1",
    "label_class": "bin 3"
  },
  {
    "compound": "Cn1c(CC2CCN(S(=O)(=O)Cc3cccc(Cl)c3)C2)nc2cccnc21 (stereo unspecified)",
    "label_class": "bin 1"
  },
  {
    "compound": "O=C([C@@H]1C[C@H](Oc2ccccc2)CN1C(=O)C1CC=CC1)N1CCCC1",
    "label_class": "bin 1"
  },
  {
    "compound": "CCCn1cnc2cc(-c3noc(C(C)NC(=O)c4ccco4)n3)ccc21 (stereo unspecified)",
    "label_class": "bin 1"
  },
  {
    "compound": "O=C(NCc1ccccc1Cl)C1CCN(c2cnc3nccnc3c2)CC1",
    "label_class": "bin 1"
  },
  {
    "compound": "COc1cc(-c2noc(Cn3cnc4c(cnn4-c4ccc(F)cc4)c3=O)n2)cc(OC)c1OC",
    "label_class": "bin 3"
  },
  {
    "compound": "Cc1cc(Cl)ccc1NC(=O)C1CCCN1S(=O)(=O)c1cc2c(cc1C)NC(=O)CO2 (stereo unspecified)",
    "label_class": "bin 2"
  },
  {
    "compound": "Cc1cc(C)cc(C(=O)N2CCc3nc[nH]c3C2)c1",
    "label_class": "bin 1"
  },
  {
    "compound": "O=C(Nc1ccc2c(c1)OCO2)c1cccc2c1CCN2C(=O)Nc1ccc(F)cc1",
    "label_class": "bin 3"
  },
  {
    "compound": "CC1=NS(=O)(=O)N(C)C=C1C(=O)OCc1ccc(Cl)cc1",
    "label_class": "bin 3"
  },
  {
    "compound": "CCn1cc(CCNC(=O)C(C)C)c2cccnc21",
    "label_class": "bin 1"
  },
  {
    "compound": "NC(=O)C1Cc2ccccc2N1C(=O)c1ccc([N+](=O)[O-])o1 (stereo unspecified)",
    "label_class": "bin 1"
  },
  {
    "compound": "CCc1cc(=O)n(CC(=O)N2CCN(c3ccccc3F)CC2)c(N2CCOCC2)n1",
    "label_class": "bin 1"
  }
]

---

The entries below come with measured RP-LC retention time values attached.
Test: gradient 5% acetonitrile 3 min, to 50% in 2 min, to 85% in 15 min, held 3 min, 100 µL/min
Conditions: column: Zorbax Extend-C18 2.1 x 50 mm; eluents: water / acetonitrile, 0.1% formic acid
readout_label: RP-LC retention time (s)

[
  {
    "compound": "Cc1noc(Cn2cnc3c4ccccc4n(CC(=O)NC4CCCC4)c3c2=O)n1",
    "recorded_result": 744
  },
  {
    "compound": "Cc1noc(C)c1S(=O)(=O)N1CCCC(c2nnnn2-c2ccccc2)C1 (stereo not given)",
    "recorded_result": 903
  },
  {
    "compound": "CC(C)c1ccc(CNC(=O)C2CCCN(c3cc(=O)n(C)c(=O)n3C)C2)cc1 (stereo not given)",
    "recorded_result": 781
  },
  {
    "compound": "O=C(c1ccc(Br)cc1)N1CCN(c2cc(-c3ccc(Cl)cc3)[nH]n2)CC1",
    "recorded_result": 945
  },
  {
    "compound": "CCN(CC)C(=O)c1ccc2nc(-c3ccc(C)cc3)cn2c1",
    "recorded_result": 649
  },
  {
    "compound": "Cc1ccc(C)c(Nc2nc(-c3ccncc3)nc3ccccc23)c1",
    "recorded_result": 772
  },
  {
    "compound": "CCn1cnc2ccc(-c3noc(CNC(=O)c4ccccc4)n3)cc21",
    "recorded_result": 620
  },
  {
    "compound": "CCOC(=O)c1ccccc1NC(=O)Cn1nc2c(Oc3ccccc3)nccn2c1=O",
    "recorded_result": 1000
  },
  {
    "compound": "Cc1cc(NC(=O)c2nc(C(C)C)oc2C)ccc1Cl",
    "recorded_result": 1250
  },
  {
    "compound": "Cc1cc(C)n2c(C)nnc2c1",
    "recorded_result": 570
  },
  {
    "compound": "C=CCN(CC=C)C(=O)Nc1cc(OC)ccc1OC",
    "recorded_result": 962
  },
  {
    "compound": "Cc1nnc(C2CC3(CCN(CCCO)CC3)CN2Cc2ccccc2)o1 (stereo not given)",
    "recorded_result": 577
  },
  {
    "compound": "CCCn1cnc2cc(CNS(=O)(=O)c3ccc(F)cc3)ccc21",
    "recorded_result": 635
  },
  {
    "compound": "COc1cc(OC)cc(C(=O)N2CCCC2c2nc(-c3cccc(C(F)(F)F)c3)no2)c1 (stereo not given)",
    "recorded_result": 1120
  },
  {
    "compound": "Cc1nn(CC(=O)NCCN(C)C)c(=O)c2cc(-c3ccccc3)nn12",
    "recorded_result": 625
  }
]
